All figures here come from patent US20160228444A1.

tested on: PBL; experiment: Median-effect drug interaction, MTT viability, 72 h; type: cell-based; settings: Homo sapiens, single agent, Table 2
Test Readout: IC50 (µM)
Your answer should be a plain number; it is taken to be in µM.

What value of IC50 on PBL does CCCC(CCC)C(=O)Nc1nc2c(ncn2COCCOC(=O)C(CCC)CCC)c(=O)[nH]1 have? 198

###

tested on: Hut-78 CTLC cell line; assay: MTT cell viability assay, 48 hours; assay type: cell-based, human; conditions: Homo sapiens, HuT78, 48 h, read-out: IC50 HUT78
Test Readout: IC50 (µM)
Your answer should be a plain number; it is taken to be in µM.

Requested read-out: IC50. Entry: CCCC(CCC)C(=O)Nc1nc2c(ncn2COCCOC(=O)C(CCC)CCC)c(=O)[nH]1 21
